# Target desc: Q98R
# Method description: SPR; 25 C
Measured attribute: Kd (nM)
# number only, unit nM dropped from output

1) BMP9 (ligand) SAGAGSHCQKTSLRVNFEDIGWDSWIIAPKEYEAYECKGGCFFPLADDVTPTKHAIVQTLVHLKFPTKVGKACCVPTKLSPISVLYKDDMGVPTLKYHYEGMSVAECGCR ... 0.074
2) Activin A (ligand) GLECDGKVNICCKKQFFVSFKDIGWNDWIIAPSGYHANYCEGECPSHIAGTSGSSLSFHSTVINHYRMRGHSPFANLKSCCVPTKLRPMSMLYYDDGQNIIKKDIQNMIVEECGCS ... 0.3
3) BMP10 (ligand) NAKGNYCKRTPLYIDFKEIGWDSWIIAPPGYEAYECRGVCNYPLAEHLTPTKHAIIQALVHLKNSQKASKACCVPTKLEPISILYLDKGVVTYKFKYEGMAVSECGCR ... 0.32

Ask: Entry GDF11 (ligand) NLGLDCDEHSSESRCCRYPLTVDFEAFGWDWIIAPKRYKANYCSGQCEYMFMQKYPHTHLVQQANPRGSAGPCCTPTKMSPINMLYFNDKQQIIYGKIPGMVVDRCGCS has what Kd?
Reply: 0.02
